Each entry below carries its recorded IC50.
# Test system: Plasmodium falciparum
# assay.remarks: Antiprotozoal activity against chloroquine and pyrimethamine-resistant Plasmodium falciparum K1
# Assay type: functional, organism-based
# recorded.conditions: Plasmodium falciparum, K1
measured.metric: IC50 (µM)

compound: O=C(OC1CC2(N3CCCCC3)CC(c3ccccc3)C1C(c1ccccc1)C2)c1ccncc1 (racemic; 11c)
measured.metric: IC50
reading: 0.62
//
compound: O=C(OC1CC2(N3CCCCC3)CC(c3ccccc3)C1C(c1ccccc1)C2)c1cccnc1 (stereo in doubt; 6c)
measured.metric: IC50
reading: 0.48
//
compound: O=C(OC1CC2(N3CCCCC3)CC(c3ccccc3)C1C(c1ccccc1)C2)c1ccccc1 (racemic)
measured.metric: IC50
reading: 0.77
//
compound: O=C(OC1CC2(N3CCCC3)CC(c3ccccc3)C1C(c1ccccc1)C2)c1ccc(Cl)cc1 (racemic)
measured.metric: IC50
reading: 0.76
//
compound: OC1CC2(N3CCCC3)CC(c3ccccc3)C1C(c1ccccc1)C2 (racemic)
measured.metric: IC50
reading: 1.23
//
compound: O=C(OC1CC2(N3CCCCC3)CC(c3ccccc3)C1C(c1ccccc1)C2)c1ccc(Cl)cc1 (racemic)
measured.metric: IC50
reading: 1.12

---

# System: Plasmodium falciparum
# assay.remarks: Antiprotozoal activity against chloroquine and pyrimethamine-resistant Plasmodium falciparum K1
# Type: functional, organism-based
pIC50: −log10 of the molar value.
measured.metric: pIC50

compound: O=C(OC1CC2(N3CCCC3)CC(c3ccccc3)C1C(c1ccccc1)C2)c1ccc(Cl)cc1 (stereo in doubt; 5b)
reading: 6.33
--
compound: O=C(OC1CC2(N3CCCC3)CC(c3ccccc3)C1C(c1ccccc1)C2)c1cccnc1 (stereo in doubt; 6b)
reading: 6.70
--
compound: CN(C)C12CC(OC(=O)c3ccccc3)C(C(c3ccccc3)C1)C(c1ccccc1)C2 (racemic)
reading: 5.93
--
compound: O=C(OC1CC2(N3CCCC3)CC(c3ccccc3)C1C(c1ccccc1)C2)c1ccccc1 (racemic)
reading: 6.10
--
compound: CN(C)C12CC(OC(=O)c3ccc(Cl)cc3)C(C(c3ccccc3)C1)C(c1ccccc1)C2 (racemic)
reading: 5.95
--
compound: O=C(OC1CC2(N3CCCCC3)CC(c3ccccc3)C1C(c1ccccc1)C2)c1ccc(Cl)cc1 (stereo in doubt; 5c)
reading: 6.10
--
compound: CN(C)C12CC(OC(=O)c3ccc(Cl)cc3)C(C(c3ccccc3)C1)C(c1ccccc1)C2 (stereo in doubt; 5a)
reading: 6.26
--
compound: OC1CC2(N3CCCCC3)CC(c3ccccc3)C1C(c1ccccc1)C2 (racemic)
reading: 5.56
--
compound: CN(C)C12CC(OC(=O)c3ccncc3)C(C(c3ccccc3)C1)C(c1ccccc1)C2 (racemic; 11a)
reading: 6.31
--
compound: O=C(OC1CC2(N3CCCC3)CC(c3ccccc3)C1C(c1ccccc1)C2)c1ccncc1 (racemic; 7b)
reading: 6.07
--
compound: CN(C)C12CC(OC(=O)c3ccncc3)C(C(c3ccccc3)C1)C(c1ccccc1)C2 (racemic; 7a)
reading: 5.94
--
compound: CN(C)C12CC(OC(=O)c3cccnc3)C(C(c3ccccc3)C1)C(c1ccccc1)C2 (stereo in doubt; 6a)
reading: 5.83
--
compound: CN(C)C12CC(OC(=O)c3cccnc3)C(C(c3ccccc3)C1)C(c1ccccc1)C2 (racemic)
reading: 6.30
--
compound: O=C(OC1CC2(N3CCCCC3)CC(c3ccccc3)C1C(c1ccccc1)C2)c1ccncc1 (racemic; 7c)
reading: 6.19
--
compound: O=C(OC1CC2(N3CCCC3)CC(c3ccccc3)C1C(c1ccccc1)C2)c1ccccc1 (stereo in doubt; 4b)
reading: 5.35
--
compound: CN(C)C12CC(OC(=O)c3ccccc3)C(C(c3ccccc3)C1)C(c1ccccc1)C2 (stereo in doubt; 4a)
reading: 5.61
